assay_text: Phase 1a study: pharmacokinetics after oral BID dosing in subjects with advanced solid tumors
Assay type: in vivo, human
conditions_used: human, in vivo, po, 50 mg, 50 mg single oral dose, Cycle 1 Day 1, geometric mean, N = 3
Counter-ions that a name gives are not always drawn.
measured_attribute: Cmax (ng/mL)
Use ng/mL as the unit, but write only the number.

# lookup: Cmax of Cc1cc(NC(=O)[C@H](O)c2cc(F)cc(F)c2)ccc1-c1cnc(N)c(C(=O)NC(C)C)c1 [Form A of the hemi-fumarate salt]
243

----------
assay_text: Phase 1a study: pharmacokinetics after oral BID dosing in subjects with advanced solid tumors
Type: in vivo, human
conditions_used: human, in vivo, po, 100 mg, 100 mg single oral dose, Cycle 1 Day 1, geometric mean, N = 4; read-out: AUC0-12
Counter-ions that a name gives are not always drawn.
measured_attribute: AUC(0-t) (µg·h/mL)
# number only, unit µg·h/mL dropped from output

Query (compound): Cc1cc(NC(=O)[C@H](O)c2cc(F)cc(F)c2)ccc1-c1cnc(N)c(C(=O)NC(C)C)c1 [Form A of the hemi-fumarate salt] ; field requested: AUC(0-t)
2.8

----------
assay_text: Solubility of hemi-fumarate Form A by visual assessment upon solvent addition
Format: physicochemical
conditions_used: EtOH, organic solvent or mixture, thermodynamic from solid, EtOH; read-out: Solubility
Structures can show the parent of a compound that is named as a salt.
measured_attribute: solubility

Fill in the blank: the reported solubility of Cc1cc(NC(=O)[C@H](O)c2cc(F)cc(F)c2)ccc1-c1cnc(N)c(C(=O)NC(C)C)c1 [Form A of the hemi-fumarate salt] is ____.
> 50 mg/mL

----------
assay_text: Phase 1a study: pharmacokinetics after oral BID dosing in subjects with advanced solid tumors
Type: in vivo, human
conditions_used: human, in vivo, po, 600 mg, 600 mg twice daily oral, Cycle 1 Day 21, point estimate, N = 1
Where a name gives a salt, the structure may show the parent alone.
measured_attribute: Cmax (ng/mL)
Field format: number, assumed ng/mL, no unit text.

// query Cmax value for entry Cc1cc(NC(=O)[C@H](O)c2cc(F)cc(F)c2)ccc1-c1cnc(N)c(C(=O)NC(C)C)c1 [Form A of the hemi-fumarate salt]
5990

----------
assay_text: Phase 1a study: pharmacokinetics after oral BID dosing in subjects with advanced solid tumors
Format: in vivo, human
conditions_used: human, in vivo, po, 200 mg, 200 mg single oral dose, Cycle 1 Day 1, geometric mean, N = 5; read-out: AUC0-last
Structures can show the parent of a compound that is named as a salt.
measured_attribute: AUC(0-t) (ng·h/mL)
Answer with a number only, understood to be in ng·h/mL.

Entry under review: Cc1cc(NC(=O)[C@H](O)c2cc(F)cc(F)c2)ccc1-c1cnc(N)c(C(=O)NC(C)C)c1 [Form A of the hemi-fumarate salt] . Reported AUC(0-t)?
5800

----------
assay_text: Solubility in water and biologically relevant media (SGF, FeSSIF, FaSSIF), HPLC, pH, XRPD
Type: physicochemical
conditions_used: pH 5.14, thermodynamic from solid; FeSSIF, 37° C., 0.5 hours
Counter-ions that a name gives are not always drawn.
measured_attribute: solubility at 0.5 h (µg/mL)
Give the number; µg/mL is assumed, so skip it.

Quick one: solubility at 0.5 h for Cc1cc(NC(=O)[C@H](O)c2cc(F)cc(F)c2)ccc1-c1cnc(N)c(C(=O)NC(C)C)c1 [Form A of the hemi-fumarate salt] ?
214

----------
assay_text: Solubility study of Form A of the compound of formula (I) in solvents (aliquot addition, visual)
Type: physicochemical
conditions_used: organic solvent or mixture, thermodynamic from solid; diethyl ether, room temperature; read-out: Approximate Solubility
measured_attribute: solubility

Looking for the measured solubility of Cc1cc(NC(=O)[C@H](O)c2cc(F)cc(F)c2)ccc1-c1cnc(N)c(C(=O)NC(C)C)c1 [Form A of the compound of formula (I)] , can you help?
< 2000 µg/mL

----------
assay_text: Solubility of mono-fumarate Form A estimated by solvent addition, visual assessment
Format: physicochemical
conditions_used: isobutanol, organic solvent or mixture, thermodynamic from solid, Isobutanol; read-out: Solubility
Where a name gives a salt, the structure may show the parent alone.
measured_attribute: solubility

Given the entry Cc1cc(NC(=O)[C@H](O)c2cc(F)cc(F)c2)ccc1-c1cnc(N)c(C(=O)NC(C)C)c1 [Form A of the mono-fumarate salt] , report its measured solubility.
> 11.1 mg/mL

----------
assay_text: Phase 1a study: pharmacokinetics after oral BID dosing in subjects with advanced solid tumors
Format: in vivo, human
conditions_used: human, in vivo, po, 25 mg, 25 mg twice daily oral, Cycle 1 Day 21, geometric mean, N = 3; read-out: AUC0-last
Where a name gives a salt, the structure may show the parent alone.
measured_attribute: AUC(0-t) (ng·h/mL)
The figure you give is taken to be in ng·h/mL; do not add the unit.

# AUC(0-t) lookup, item Cc1cc(NC(=O)[C@H](O)c2cc(F)cc(F)c2)ccc1-c1cnc(N)c(C(=O)NC(C)C)c1 [Form A of the hemi-fumarate salt]
4110

----------
assay_text: Phase 1a study: pharmacokinetics after oral BID dosing in subjects with advanced solid tumors
Type: in vivo, human
conditions_used: human, in vivo, po, 400 mg, 400 mg twice daily oral, Cycle 1 Day 21, geometric mean, N = 2
Where a name gives a salt, the structure may show the parent alone.
measured_attribute: Cmax (ng/mL)
All answers are understood in ng/mL, so give the number only.

Which value of Cmax has been reported for Cc1cc(NC(=O)[C@H](O)c2cc(F)cc(F)c2)ccc1-c1cnc(N)c(C(=O)NC(C)C)c1 [Form A of the hemi-fumarate salt] in the records?
3680

----------
assay_text: Solubility of mono-fumarate Form A estimated by solvent addition, visual assessment
Type: physicochemical
conditions_used: toluene, organic solvent or mixture, thermodynamic from solid, Toluene; read-out: Solubility
Structures can show the parent of a compound that is named as a salt.
measured_attribute: solubility

Entry under review: Cc1cc(NC(=O)[C@H](O)c2cc(F)cc(F)c2)ccc1-c1cnc(N)c(C(=O)NC(C)C)c1 [Form A of the mono-fumarate salt] . Reported solubility?
< 1100 µg/mL

----------
assay_text: Solubility study of Form A of the compound of formula (I) in solvents (aliquot addition, visual)
Assay type: physicochemical
conditions_used: organic solvent or mixture, thermodynamic from solid; heptane, room temperature; read-out: Approximate Solubility
measured_attribute: solubility

Which solubility is reported for this compound? Cc1cc(NC(=O)[C@H](O)c2cc(F)cc(F)c2)ccc1-c1cnc(N)c(C(=O)NC(C)C)c1 [Form A of the compound of formula (I)]
< 3000 µg/mL

----------
assay_text: Phase 1a study: pharmacokinetics after oral BID dosing in subjects with advanced solid tumors
Assay type: in vivo, human
conditions_used: human, in vivo, po, 200 mg, 200 mg single oral dose, Cycle 1 Day 1, geometric mean, N = 5; interpret with caution, terminal elimination phase not well captured; read-out: t1/2 (converted)
Structures can show the parent of a compound that is named as a salt.
measured_attribute: half-life (h)
Use h as the unit, but write only the number.

What value of measured half-life is listed for Cc1cc(NC(=O)[C@H](O)c2cc(F)cc(F)c2)ccc1-c1cnc(N)c(C(=O)NC(C)C)c1 [Form A of the hemi-fumarate salt] ?
20.6

----------
assay_text: Phase 1a study: pharmacokinetics after oral BID dosing in subjects with advanced solid tumors
Format: in vivo, human
conditions_used: human, in vivo, po, 200 mg, 200 mg single oral dose, Cycle 1 Day 1, median, N = 5
Counter-ions that a name gives are not always drawn.
measured_attribute: Tmax (h)
Please give a number only; it is taken to be in h.

Dear colleague, I am looking for the recorded Tmax of the following compound: Cc1cc(NC(=O)[C@H](O)c2cc(F)cc(F)c2)ccc1-c1cnc(N)c(C(=O)NC(C)C)c1 [Form A of the hemi-fumarate salt]
4

----------
assay_text: Phase 1a study: pharmacokinetics after oral BID dosing in subjects with advanced solid tumors
Assay type: in vivo, human
conditions_used: human, in vivo, po, 100 mg, 100 mg single oral dose, Cycle 1 Day 1, geometric mean, N = 4
Counter-ions that a name gives are not always drawn.
measured_attribute: Cmax (µg/mL)
Please respond with the number in µg/mL and leave the unit unwritten.

# lookup: Cmax of Cc1cc(NC(=O)[C@H](O)c2cc(F)cc(F)c2)ccc1-c1cnc(N)c(C(=O)NC(C)C)c1 [Form A of the hemi-fumarate salt]
0.38

----------
assay_text: Solubility in water and biologically relevant media (SGF, FeSSIF, FaSSIF), HPLC, pH, XRPD
Type: physicochemical
conditions_used: simulated gastric fluid, thermodynamic from solid; SGF, 37° C., 0.5 hours
Structures can show the parent of a compound that is named as a salt.
measured_attribute: solubility at 0.5 h (µg/mL)
Report only the number, with the unit µg/mL understood.

Which measured solubility at 0.5 h value corresponds to Cc1cc(NC(=O)[C@H](O)c2cc(F)cc(F)c2)ccc1-c1cnc(N)c(C(=O)NC(C)C)c1 [Form A of the hemi-fumarate salt] ?
4290

----------
assay_text: Phase 1a study: pharmacokinetics after oral BID dosing in subjects with advanced solid tumors
Format: in vivo, human
conditions_used: human, in vivo, po, 100 mg, 100 mg single oral dose, Cycle 1 Day 1, median, N = 4
Counter-ions that a name gives are not always drawn.
measured_attribute: Tmax (h)
Unit h implied. Number only.

For the compound Cc1cc(NC(=O)[C@H](O)c2cc(F)cc(F)c2)ccc1-c1cnc(N)c(C(=O)NC(C)C)c1 [Form A of the hemi-fumarate salt] , what Tmax is on record?
7
